# System: platelets
# measurement.description: Platelets aggregation inhibitory activity (method of Born et al.), ADP-induced, human PRP (Pharmacological Test I)
# Format: cell-based, man
# conditions: Homo sapiens, Platelet, 7.5 μM ADP, 37° C., read-out: IC50 ADP (50% platelets aggregation inhibition)
recorded.metric: pIC50
Recall that pIC50 is obtained by taking minus log10 of the concentration measured in molar.

What measured pIC50 is associated with O=S(=O)(CCCOc1ccc2[nH]c(=S)ccc2c1)N(CCN1CCC(O)CC1)c1ccccc1 [Example 87] on platelets?
5.33

Form field: pIC50 recorded for O=c1ccc2cc(OCCCCS(=O)(=O)N(CCN3CCC(O)CC3)Cc3ccc(Cl)c(Cl)c3)ccc2[nH]1 [Example 95] with platelets (enter value)
5.00

Checklist item: pIC50 tested on platelets, entry O=c1ccc2cc(OCCCCCS(=O)(=O)N(CCN3CCC(O)CC3)CC3CCCCCCC3)ccc2[nH]1 [Example 80] , value?
4.89

State its pIC50 on platelets: O=c1ccc2cc(OCCCCS(=O)(=O)N(CCN3CCC(O)CC3)C3CCCCCCC3)ccc2[nH]1 [Example 88]
5.55

Kindly state the measured pIC50 obtained for CCN1C[C@H](O)C[C@H]1CN(CCCCOc1ccc2[nH]c(=O)ccc2c1)CC1CCCCCCC1 [Example 71] with platelets.
4.74
